These measurements were taken from PubChem BioAssay (NCATS).

- System: CP194
- Protocol Notes: qHTS profiling for inhibitors of Plasmodium falciparum proliferation (AID 504749); note: nearly all actives have a fitted effect of over 60% in size
- Condition Set: P. falciparum in erythrocytes, SYBR Green DNA, 72 h; series mostly up to 28.7 µM
Records with an inconclusive call do not appear. The source made the active and inactive calls. Calls come from the whole dose curve; as a rule, active = well fitted inhibition curve with a large enough effect; inconclusive = small, poorly fitted or top-dose-only effect; inactive = flat fitted curve, though single readings scatter.
Outcomes: class 1 (active), class 0 (inactive)

Compound | Category Label
CC[C@@]1(O)CC2CN(CCc3c([nH]c4ccccc34)[C@](C(=O)OC)(c3cc4c(cc3OC)N(C)C3[C@@](O)(C(=O)OC)C(OC(C)=O)[C@]5(CC)C=CCN6CC[C@@]43C65)C2)C1 (some centres undefined) | class 1
CNC1C(O)C(OC2C(NC(=O)C(O)CN)CC(N)C(OC3OC(CN)C(O)C(O)C3O)C2O)OCC1(C)O (centres undefined) | class 0
O=C1[C@@H]2C[C@@H]3C[C@H]1C[C@@](O)(C3)C2 | class 0
C=CC1CN2CCC1CC2[C@@H](O)c1ccnc2ccc(OC)cc12 (some centres undefined) | class 1
NC(CSSCC(N)C(=O)O)C(=O)O (centres undefined) | class 0
NC(=O)OC[C@@H]1[C@H](NC(=O)/C(=N/OCC(=O)O)c2csc(N)n2)C(=O)N1S(=O)(=O)O | class 0
Cc1cncc(C(=O)O)[n+]1[O-] | class 0
CCCCCCCCCCCCCCCC(=O)OC[C@H](O)[C@H]1OC[C@@H](O)[C@@H]1O | class 0
CC1(Cn2ccnn2)[C@H](C(=O)O)N2C(=O)C[C@H]2S1(=O)=O (some centres undefined) | class 0
